# System: HBV DNA replication
# procedure details: In vitro anti-HBV: inhibition of HBV DNA replication in 2.2.15 cells (dot blot)
# Type: cell-based, hepatitis B virus
# condition info: Hepatitis B virus, 192 h, day 8, dot blot
Rule: IC50 below 7 mg/L gives Criterion met. Equal to or above 7 mg/L gives Criterion not met.

[[record]]
compound = "CC(=O)Nc1ccc(C(=O)N[C@@H](Cc2ccccc2)C(=O)N[C@H](CO)Cc2ccccc2)cc1"
assigned_label = "Criterion met"


Lab note: confirm whether the reported IC50 for this compound is below 7 mg/L, equality not counting. compound: `COC(=O)[C@H](Cc1ccccc1)NC(=O)[C@H](Cc1ccc(O)cc1)NC(=O)c1ccc(Cl)cc1`
Criterion not met

Lab note: confirm whether the reported IC50 for this compound is below 7 mg/L, equality not counting. compound: `CCCCOc1ccc(C[C@H](NC(=O)[C@H](Cc2ccccc2)NC(=O)c2ccccc2)C(=O)[O-])cc1.[Na+]`
Criterion not met

Lab note: confirm whether the reported IC50 for this compound is below 7 mg/L, equality not counting. compound: `CC(=O)Nc1ccc(C[C@H](NC(=O)c2ccccc2)C(=O)N[C@H](COC(C)=O)Cc2ccccc2)cc1`
Criterion met

---

# Tested on: HBV DNA replication
# procedure details: In vitro anti-HBV: inhibition of HBV DNA replication in 2.2.15 cells (dot blot)
# Assay type: cell-based, hepatitis B virus
# condition info: Hepatitis B virus, 192 h, day 8, dot blot
Where a SMILES comes first, the peptide text is derived from it. The star is where a group is joined. Bz = O=C(c1ccccc1)*
readout name: IC50 (µg/mL)
Field format: number, assumed µg/mL, no unit text.

Some solved entries appear below for comparison.
[[record]]
molecule = "COC(=O)[C@H](Cc1ccc(OC(C)=O)cc1)NC(=O)[C@H](Cc1ccc(NC(C)=O)cc1)NC(=O)c1ccc(C)cc1 [Example 68]"
readout_name = "IC50"
readout_units = "µg/mL"
measured = 13.1

[[record]]
molecule = "O=C(N[C@@H](Cc1ccccc1)C(=O)N[C@H](CO)Cc1ccccc1)c1ccc(Cl)cc1 [Example 07]"
readout_name = "IC50"
readout_units = "µg/mL"
measured = 1.02

[[record]]
molecule = "CC(=O)OC[C@H](Cc1ccccc1)NC(=O)[C@H](Cc1ccccc1)NC(=O)c1ccccc1 [Example 55]"
readout_name = "IC50"
readout_units = "µg/mL"
measured = 4.96


Lab note: molecule CCOC(=O)c1ccc(C(=O)N[C@@H](Cc2ccccc2)C(=O)N[C@H](CO)Cc2ccccc2)cc1 [Example 52] tested on HBV DNA replication; recorded IC50 was 24.2

Lab note: molecule O=C(O)CCC(=O)Nc1ccc(C[C@H](NC(=O)c2ccccc2)C(=O)N[C@H](CO)Cc2ccccc2)cc1 [Example 83] tested on HBV DNA replication; recorded IC50 was 253

Lab note: molecule O=C(N[C@@H](Cc1ccccc1)C(=O)N[C@@H](Cc1ccccc1)C(=O)O)c1ccccc1 [Example 86] (Bz-Phe-Phe-OH) tested on HBV DNA replication; recorded IC50 was 10.6

---

# Tested on: 2.2.15 cells
# procedure details: Cytotoxicity (TC50, median toxic concentration) in 2.2.15 cells
# Assay type: cell-based
*1 amine or outer side, *2 acyl side, *3 side chain or, on linkers, in order; H or OH if unused. Where a SMILES comes first, the peptide text is derived from it. [ ]: non-standard residue; d: D form. The star is where a group is joined. Phe(4-NO2) = N[C@@H](Cc1ccc([N+](=O)[O-])cc1)C(=O)O; Suc = O=C(CCC(=O)[*:2])[*:1]; 4Abz = Nc1ccc(C(=O)O)cc1; Bz = O=C(c1ccccc1)*
readout name: TC50 (µg/mL)
Field format: number, assumed µg/mL, no unit text.

[[record]]
molecule = "O=C([O-])CCC(=O)Nc1ccc(C(=O)N[C@@H](Cc2ccccc2)C(=O)N[C@@H](Cc2ccccc2)C(=O)[O-])cc1.[Na+].[Na+] [Example 92] ({Suc-4Abz}-Phe-Phe-OH)"
readout_units = "µg/mL"
measured = 379.36

[[record]]
molecule = "COC(=O)[C@H](Cc1ccc(O)cc1)NC(=O)[C@H](Cc1ccc([N+](=O)[O-])cc1)NC(=O)c1ccccc1 [Example 14] (Bz-[Phe(4-NO2)]-Tyr-OMe)"
readout_units = "µg/mL"
measured = 53.42

[[record]]
molecule = "COC(=O)[C@H](Cc1ccc(O)cc1)NC(=O)[C@H](Cc1ccccc1)NC(=O)c1ccccc1 [Example 04] (Bz-Phe-Tyr-OMe)"
readout_units = "µg/mL"
measured = 450.67


// TC50 lookup, molecule = CC(=O)Nc1ccc(C[C@H](NC(=O)c2ccccc2)C(=O)N[C@H](COC(C)=O)Cc2ccccc2)cc1 [Example 54] , result: 43.11

// TC50 lookup, molecule = COC(=O)[C@H](Cc1ccccc1)NC(=O)[C@H](Cc1ccccc1)NC(=O)c1ccc(NC(=O)CN2CCCC2)cc1 [Example 82] , result: 59.19

// TC50 lookup, molecule = Cc1ccc(C(=O)N[C@@H](Cc2ccccc2)C(=O)N[C@H](CO)Cc2ccccc2)cc1 [Example 13] , result: 776.06

// TC50 lookup, molecule = CCOC(=O)c1ccc(C(=O)N[C@@H](Cc2ccccc2)C(=O)N[C@H](CO)Cc2ccccc2)cc1 [Example 52] , result: 89.23

// TC50 lookup, molecule = O=C(N[C@@H](Cc1ccccc1)C(=O)N[C@H](CO)Cc1ccccc1)c1ccc(CN2CCCC2)cc1 [Example 50] , result: 64.15

// TC50 lookup, molecule = O=C(N[C@@H](Cc1ccc(OCO)cc1)C(=O)N[C@H](CO)Cc1ccccc1)c1ccccc1.[Na] [Example 80] , result: 388.03

---

In this section we review reported log10 TC50 values for a set of molecules.
# Test system: 2.2.15 cells
# procedure details: Cytotoxicity (TC50, median toxic concentration) in 2.2.15 cells
# Assay type: cell-based
Where a SMILES comes first, the peptide text is derived from it. [ ]: non-standard residue; d: D form. The star is where a group is joined. Phe(4-NO2) = N[C@@H](Cc1ccc([N+](=O)[O-])cc1)C(=O)O; Phe(4-NH2) = Nc1ccc(C[C@H](N)C(=O)O)cc1; 4Abz = Nc1ccc(C(=O)O)cc1; Bz = O=C(c1ccccc1)*
The figures below represent log10 of TC50, where TC50 is stated in µg/mL.

[[record]]
molecule = "Cc1cccc(C(=O)N[C@@H](Cc2ccccc2)C(=O)N[C@H](CO)Cc2ccccc2)c1 [Example 05]"
readout_name = "log10 TC50"
measured = 1.89

[[record]]
molecule = "CC(=O)Nc1ccc(C(=O)N[C@@H](Cc2ccccc2)C(=O)N[C@H](CO)Cc2ccccc2)cc1 [Example 39]"
readout_name = "log10 TC50"
measured = 1.16

[[record]]
molecule = "COC(=O)[C@H](Cc1ccc(O)cc1)NC(=O)[C@H](Cc1ccccc1)NC(=O)c1ccc(NC(C)=O)cc1 [Example 36] (Ac-[4Abz]-Phe-Tyr-OMe)"
readout_name = "log10 TC50"
measured = 2.59


// log10 TC50 lookup, molecule = COC(=O)[C@H](Cc1ccc(OC)cc1)NC(=O)[C@H](Cc1ccccc1)NC(=O)c1ccccc1 [Example 71] (Bz-Phe-Tyr(Me)-OMe) , result: 2.59

// log10 TC50 lookup, molecule = O=C(N[C@H](CO)Cc1ccccc1)[C@H](Cc1ccc(O)cc1)NCc1ccncc1 [Example 47] , result: 2.41

// log10 TC50 lookup, molecule = COC(=O)[C@H](Cc1ccc(N)cc1)NC(=O)[C@H](Cc1ccccc1)NC(=O)c1ccccc1.Cl [Example 58] (Bz-Phe-[Phe(4-NH2)]-OMe) , result: 1.46

// log10 TC50 lookup, molecule = O=C(N[C@@H](Cc1ccccc1)C(=O)N[C@H](CO)Cc1ccccc1)c1ccc(CN2CCOCC2)cc1 [Example 51] , result: 1.89

// log10 TC50 lookup, molecule = COC(=O)[C@H](Cc1ccccc1)NC(=O)[C@H](Cc1ccccc1)NC(=O)c1ccc(F)cc1 [Example 03] , result: 1.25

// log10 TC50 lookup, molecule = O=C(N[C@@H](Cc1ccccc1)C(=O)N[C@H](CO)Cc1ccc([N+](=O)[O-])cc1)c1ccccc1 [Example 16] , result: 1.72

// log10 TC50 lookup, molecule = CN(C)c1ccc(C[C@H](NC(=O)c2ccccc2)C(=O)N[C@H](CO)Cc2ccccc2)cc1 [Example 84] , result: 1.94

// log10 TC50 lookup, molecule = COC(=O)[C@H](Cc1ccc([N+](=O)[O-])cc1)NC(=O)[C@H](Cc1ccc([N+](=O)[O-])cc1)NC(=O)c1ccccc1 [Example 15] (Bz-[Phe(4-NO2)]-[Phe(4-NO2)]-OMe) , result: 1.66

// log10 TC50 lookup, molecule = COC(=O)[C@H](Cc1ccc(NC(C)=O)cc1)NC(=O)[C@H](Cc1ccccc1)NC(=O)c1ccccc1 [Example 59] (Bz-Phe-[Phe(4-NH2)](Ac)-OMe) , result: 2.41

// log10 TC50 lookup, molecule = COC(=O)[C@H](Cc1ccccc1)NC(=O)[C@H](Cc1ccccc1)NC(=O)c1ccccc1Cl [Example 10] , result: 2.46

// log10 TC50 lookup, molecule = COC(=O)[C@H](Cc1ccccc1)NC(=O)[C@H](Cc1ccc(OC(C)=O)c(NC(C)=O)c1)NC(=O)c1ccccc1 [Example 63] , result: 2.55
